Cited source for all entries: patent US11932658B2

- target of assay: PAR4 (Homo sapiens)
- Construct: expressed in transfected cells; host or cells: HEK293 PAR4 Clone 1.2A (BMS Arctic ID 383940)
- Sequence (Q96RI0 18-385): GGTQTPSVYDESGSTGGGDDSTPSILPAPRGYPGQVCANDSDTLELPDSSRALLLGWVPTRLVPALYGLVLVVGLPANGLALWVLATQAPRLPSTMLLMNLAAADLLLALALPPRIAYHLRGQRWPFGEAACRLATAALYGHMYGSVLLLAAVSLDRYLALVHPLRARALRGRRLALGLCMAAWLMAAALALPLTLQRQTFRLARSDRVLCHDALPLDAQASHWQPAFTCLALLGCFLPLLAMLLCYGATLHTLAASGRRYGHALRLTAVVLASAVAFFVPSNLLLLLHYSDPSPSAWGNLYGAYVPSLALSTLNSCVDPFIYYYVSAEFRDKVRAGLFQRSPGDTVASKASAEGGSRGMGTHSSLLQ
- assay: PAR4 FLIPR assay (antagonism of agonist peptide-induced calcium mobilization)
- Type: cell-based
- Text: The FLIPR assay is an exemplary in vitro assay for measuring the activity of the PAR4 antagonists of the present invention. In this assay, intracellular calcium mobilization is induced in PAR4 expressing cells by a PAR4 agonist and calcium mobilization is monitored. HEK293 cells stably expressing PAR4 were generated by a standard method of transfection of human PAR4 (F2R23) cDNA expression vector and selected based on PAR4 protein expression or mRNA expression. […]
quantity name: IC50 (nM)

                           substance_smiles      target_of_assay  quantity_name  measurement_units  numeric_readout
0  COc1cnc2c(-c3nc4ccc5c(c4s3)OC[C@H](COC(=O)Nc3ccc(Br)nc3)O5)cc(C)cc2n1  PAR4 (Homo sapiens)           IC50                 nM              2.6

(I) COc1cnc2c(-c3cc4c5c(cc(C)c4o3)O[C@@H](COC(=O)Nc3ccnc(C)c3)CO5)cc(C)cc2n1
(II) COc1cnc2c(-c3nc4ccc5c(c4s3)OC[C@H](COC(=O)Nc3cnc4[nH]ccc4c3)O5)cc(C)cc2n1
# argmax over IC50 for candidates I and II Your answer should be the label of the entry you select.
I

----------
- target of assay: PAR4 (Homo sapiens)
- Construct: expressed in transfected cells; host or cells: HEK293 PAR4 Clone 1.2A (BMS Arctic ID 383940)
- assay: PAR4 FLIPR assay (antagonism of agonist peptide-induced calcium mobilization)
- Assay type: cell-based
pIC50: −log10 of the molar value.
quantity name: pIC50

Here's what some known entries look like.
                                   molecule      target_of_assay  numeric_readout
0  COc1cnc2c(-c3nc4cc(F)c5c(c4s3)C[C@@H](CNC(=O)Oc3ccccc3)O5)cc(C)cc2n1  PAR4 (Homo sapiens)             8.68
1  COc1cnc2c(-c3nc4ccc5c(c4s3)OC[C@H](COC(=O)Nc3cnc(OC[C@H](C)O)nc3)O5)cc(Cl)cc2c1  PAR4 (Homo sapiens)             8.66
2  COc1cc(NC(=O)OC[C@H]2COc3c(cc(C)c4nc(-c5cc(C)cc6nc(OC)cnc56)sc34)O2)ccn1  PAR4 (Homo sapiens)             8.96
3  CNC(=O)c1ccc(NC(=O)OC[C@H]2Cc3c(c(F)cc4nc(-c5cc(C)cc6nc(OC)cnc56)sc34)O2)cc1  PAR4 (Homo sapiens)             8.96
4  COc1cnc2c(-c3nc4c(C)cc5c(c4s3)OCC(COC(=O)Nc3ccc(Oc4ccccc4)nc3)O5)cc(C)cc2n1 (stereo not drawn)  PAR4 (Homo sapiens)             8.09
5  COc1cnc2c(-c3nc4c(Cl)cc5c(c4s3)OC[C@H](COC(=O)Nc3cncc(C#N)c3)O5)cc(C)cc2n1  PAR4 (Homo sapiens)             8.82

(A) COc1cnc2c(-c3nc4c(C)cc5c(c4s3)OC[C@H](COC(=O)Nc3ccncc3)O5)cc(C)cc2n1
(B) COc1cnc2c(-c3nc4cc(F)c5c(c4s3)C[C@@H](CO)O5)cc(C)cc2n1
# argmax over pIC50 for candidates A and B Your answer should be the label of the entry you select.
B
